Test system: XIP peptide (Xip251-270)
Assay: compounds binding XIP fragment 251-270 – biochemical, small-molecule microarray, fluorescence 635/667 nm, 0.5 µg/mL protein, primary screen (AID 1183)
Details: fluorescence 635 nm, higher = more signal
Provide the recorded composite z-score for the entries that follow.
Give the figure only, with no unit attached.

For XIP peptide (Xip251-270), provide composite z-score of CCOC(=O)C[C@H]1[C@H](OC(=O)c2cc3ccccc3oc2=O)[C@@H](NC(=O)CC(C)C)c2cc(OCCCO)ccc2N1C(=O)Cc1ccc(OC)cc1 please.
0.686

# get_value(readout= composite z-score, system= XIP peptide (Xip251-270)) for COC(=O)C(CC#Cc1ccc2c(c1)[C@]1(C(=O)N2)[C@H](C(=O)N2CCc3cc(OC)c(OC)cc3C2)[C@H]2C(=O)O[C@H](c3ccccc3)[C@H](c3ccccc3)N2[C@@H]1c1ccccc1OCCO)C(=O)OC
0.796

Item: COC(=O)[C@@]1(Cc2ccc(F)cc2)[C@H]2c3cc(C(=O)N4CCCC4)n(Cc4cc(F)cc5c4OCOC5)c3C[C@H]2CN1C(=O)c1ccccc1 Test system: XIP peptide (Xip251-270) Read-out: composite z-score Value: ?
0.53

Quick check: composite z-score on XIP peptide (Xip251-270), item COc1cc(C(O)C2C=CC3C(=O)N(c4ccccc4)C(=O)C3N2Nc2ccccc2)cc(OC)c1OC (stereo not given) ?
0.746

Could you share what composite z-score was measured for NCCCCCCNC(=O)[C@@H]1C[C@@H]2C(=O)N3CCC[C@H]3C(=O)N2[C@@H]1c1cccc(OCCO)c1 , tested on XIP peptide (Xip251-270)?
0.2

* * *

Provide the reported z-score of each item.
Test: blockers of DNA damage checkpoint Chk1 activation – imaging, HeLa, hydroxyurea, phospho-Chk1 antibody, percent positive cells, primary screen (AID 1186)
Details: hydroxyurea-induced phospho-Chk1 immunofluorescence imaging, higher = more signal
Simply state the number, no unit and no words.

What value of measured z-score is listed for O=C1C[C@@](C(=O)NCc2ccccc2)(c2ccc([N+](=O)[O-])cc2)[C@@H](c2ccc(CO)cc2)N1C1CCCCC1 ?
-0.53

For the compound CCOC(=O)C[C@H]1[C@H](OC(=O)Cc2ccc3c(c2)OCO3)[C@@H](NC(=O)c2ccc3ccccc3n2)c2cc(OCCCO)ccc2N1C(=O)Cc1ccc(OC)cc1 , what z-score is on record?
-0.192

Entry [N-]=[N+]=Nc1ccccc1[C@H]1OC(c2ccc(OCCCO)cc2)=N[C@@]1(Cc1ccccc1)C(=O)NCC(O)CO (some centres not stated) : reported z-score = ?
0.0068

What z-score value was documented for this compound, COC(=O)[C@@]1(Cc2ccccc2)N=C(c2ccc(OCCCO)cc2)O[C@H]1c1ccccc1CN=[N+]=[N-] ?
-0.727

Data request, read-out z-score, for COCCOC(=O)N1C(=O)[C@@]2(c3cc(C#CCCO)ccc31)[C@H](c1ccc(OCCO)cc1)N1[C@H](c3ccccc3)[C@H](c3ccccc3)OC(=O)[C@H]1[C@@H]2C(=O)N1CCCCCCC1
0.197

Which z-score is listed for Cc1ccc(S[C@]2(C(=O)NCCCN(C)C)CC(=O)N(C3Cc4ccccc4C3)[C@@H]2c2ccc(CO)cc2I)cc1 ?
0.721

What value of z-score has been recorded for this entry: CN1C(=O)C2C(C1=O)C1C=C(CCCO)C2C(C2CC2)N1Cc1cccc(OC(F)(F)F)c1 (configuration not stated)
0.0426

* * *

Experiment: blockers of DNA damage checkpoint Chk1 activation – imaging, HeLa, hydroxyurea, phospho-Chk1 nuclear intensity, primary screen (AID 1187)
Settings: hydroxyurea-induced phospho-Chk1 immunofluorescence imaging, higher = more signal
OUTCOME_MEASURE: z-score
Give your answer as a number; write no unit.

Could you tell me which z-score is on file for COC(=O)[C@@]1(Cc2ccccc2)[C@H]2c3cc(C(=O)N4CCCC4)n(Cc4ccc(OC)c(OC)c4)c3C[C@H]2CN1C(=O)c1ccccc1 ?
0.282

So what's the measured z-score for this one? COC(=O)[C@@]1(Cc2ccccc2)[C@H]2c3cc(C(=O)N(C)C)n(Cc4ccc(S(C)(=O)=O)cc4)c3C[C@H]2CN1C(=O)c1ccccc1
0.38

Item under review: CC(C)=CCCC(C)=CC(O)C1C=CC2C(=O)NC(=O)C2N1Nc1ccc(Cl)cc1Cl (stereo unspecified) . Reported z-score?
0.848

Please report the recorded z-score for COC(=O)[C@@]1(Cc2ccc(OC)cc2)[C@H]2c3cc(C(=O)N4CCCC4)n(Cc4ccc(Cl)c(C(F)(F)F)c4)c3C[C@H]2CN1C(=O)c1ccccc1 .
-0.559

Field request: z-score | item: CC[C@@H]1C=C(C(=O)O)[C@H](c2ccc(OC)cc2)N1S(=O)(=O)c1ccc(C)cc1
-1.26

Report z-score for COC(=O)C(CC#Cc1ccc2c(c1)[C@]1(C(=O)N2)[C@H](C(=O)N2CCc3cc(OC)c(OC)cc3C2)[C@H]2C(=O)O[C@H](c3ccccc3)[C@H](c3ccccc3)N2[C@@H]1c1ccccc1OCCO)C(=O)OC please.
0.0536

* * *

Target: E3 ubiquitin-protein ligase XIAP (Homo sapiens)
Assay: small molecules binding XIAP protein – biophysical, small-molecule microarray, fluorescence 635 nm, primary screen (AID 1181);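 further: score merges 667 nm emission and signal to noise over triplicate slides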
Conditions: higher = more signal
OUTCOME_MEASURE: composite z-score
Note: the reply should be a number with no unit written.

Quick one: composite z-score for C=CCNC(=O)[C@H]1[C@@H]2C(=O)O[C@@H](c3ccccc3)[C@@H](c3ccccc3)N2[C@@H](c2ccc(OCCO)cc2)[C@]12C(=O)Nc1ccccc12 ?
0.347

Entry under review: CCCC[C@H]1C[C@@H]1[C@@H]1N(C(C)=O)[C@H](c2cccc(OC)c2)CC12CC2 . Reported composite z-score?
-0.0416

Please report the recorded composite z-score for COc1cc(CO)cc(I)c1O[C@H]1C=C(C(=O)NCCO)C[C@@H](NC2CCCCCC2)[C@@H]1O .
-0.11

# get_value(readout='composite z-score', item= N#Cc1ccc(C(O)C2C=CC3C(=O)NC(=O)C3N2Nc2ccc(Cl)cc2Cl)cc1 (centres undefined) )
0.0856

* * *

Experiment: inhibition of PAO1 biofilm formation – strain PAO1, LB-PBS medium, absorbance 600 nm, primary screen (AID 1176)
Conditions: P. aeruginosa PAO1 growth/biofilm, A600, 12 h; higher = more signal
OUTCOME_MEASURE: z-score
// response body must contain only the number

So what does the record say about z-score for COCCOC(=O)N1C(=O)[C@@]2(c3cc(C#Cc4ccc(OC)cc4)ccc31)[C@H](c1ccc(OCCO)cc1)N1[C@H](c3ccccc3)[C@H](c3ccccc3)OC(=O)[C@H]1[C@@H]2C(=O)NC[C@H](O)c1ccccc1 ?
5.17

Consider the compound C=CCN1C(=O)[C@]2(O[C@H](CCn3cc([C@H](O)c4ccccc4)nn3)[C@@H]([Si](C)(C)c3ccc(OC)cc3)[C@@H]2C)c2cc(NC(=O)c3ccc(OC)cc3)ccc21 and give its measured z-score.
1.59

Need z-score of COc1ccc([Si](C)(C)[C@@H]2[C@@H](CC(=O)N(CCO)Cc3ccccc3)O[C@]3(C(=O)N(Cc4ccc(I)cc4)c4ccccc43)[C@H]2C)cc1 , thanks.
1.1

Requested read-out: z-score. Entry: O=C1C2C=CC(C(O)C3CCCCC3)N(n3cnnc3)C2C(=O)N1Cc1ccccc1 (centres undefined)
0.561

* * *

Assign z-score to each entry below.
Experiment: compound effects on multiple myeloma cell viability – MM1S, calcein-AM fluorescence, 48 h, basal, profiling panel (AID 1165);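 further: viability of MM1S multiple myeloma cells under basal unstimulated conditions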
Conditions: higher = more signal
Just the number, please, no unit after it.

State the recorded z-score for this entry: COC(=O)[C@@]1(Cc2ccccc2)N=C(c2ccc(OCCCO)cc2)O[C@H]1c1ccccc1CN=[N+]=[N-]
-3.55

Return reported z-score; argument: C[N+](C)(C)CCCCNC(=O)[C@H]1C[C@H]2C(=O)N[C@@H](Cc3ccccc3)C(=O)N2[C@H]1c1cccc(OCCO)c1
0.135

I have this molecule here, CC1=C([C@H](O)CCc2ccccc2)[C@H](CO)n2c(=O)n(-c3ccccc3)c(=O)n2C1 , and I need its recorded z-score.
0.5

Fill in the blank: the reported z-score of COc1ccc(C(O)C2C=CC3C(=O)N(c4ccccc4)C(=O)C3N2Nc2ccc(C#N)cc2)cc1OCc1ccccc1 (stereo not drawn) is ____.
0.333

Data request, read-out z-score, for CC(C)=CCCC(C)=CC(O)C1C=CC2C(=O)NC(=O)C2N1Nc1ccc(Cl)cc1Cl (stereo not drawn)
-3.76

Which z-score is listed for CCOc1cc(C(O)C2C=CC3C(=O)N(c4ccccc4)C(=O)C3N2Nc2ccccc2F)ccc1O (stereo not drawn) ?
-0.495

# query: z-score of entry COC(=O)C[C@H]1O[C@@]2(C[C@@H]1[Si](C)(C)C)C(=O)N(C)c1ccccc12
0.561

I'd like to know its z-score. The molecule in question is CN1C(=O)C2C(C3CC3)C=C3CN(Cc4cccc(Cl)c4)[C@@H]([C@@H](O)Cc4ccccc4)C3C2C1=O (stereo partly drawn)
-1.81
